mIL11 - average signal for assorted binders
Molecular target: T1, Mouse IL-11 (mouse, UniProt P47873 22-199, limits assumed)
T1 construct: also called murine IL-11; recombinant murine IL-11
T1 sequence (looked up): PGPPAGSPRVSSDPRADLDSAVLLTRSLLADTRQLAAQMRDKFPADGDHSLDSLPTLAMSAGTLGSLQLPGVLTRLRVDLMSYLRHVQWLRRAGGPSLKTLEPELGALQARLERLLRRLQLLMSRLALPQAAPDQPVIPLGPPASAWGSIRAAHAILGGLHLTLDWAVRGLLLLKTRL
Assay: ELISA
measured metric: mIL11 - average signal

1) YU100-B07 (antibody) QVQLVESGGGVVQPGRSLRLSCAASGFTFSSYGMHWVRQAPGKGLEWVAVISYDGSNKYYADSVKGRFTISRDNSKNTLYLQMNSLRAEDTAVYYCAKIGATDPLDYWGQGTLVTVSSGSASAPKLEEGEFSEARVQSALTQPRSVSGSPGQSVTMSCTGTSRDVGGYNYVSWYQHHPGKAPKLMIYDVSKRPSGVPDRFSGSKSGNTASLTISELQAEDEADYYCCSYAGSYTWVFGGGTKLTVL	0.354
2) YU112-C03 (antibody) QVQLVESGGGVVQPGRSLRLSCAASGFTFSSYGMHWVRQAPGKGLEWVAVISYDGSNKYYADSVKGRFTISRDNSKNTLYLQMNSLRAEDTAVYYCAKGGKSYYGFDYWGQGTLVTVSSGSASAPKLEEGEFSEARVDSVMTQSPSSLSASVGDRVTITCRASQAINSYLNWYQQKPGKAPKLLIYAASSLQSGVPSRFSGSGSGTDFTLTISGLQPEDFATYYCQQSYSTPSWTFGQGTKVEIK	0.445
3) YU100-D07 (antibody) QVQLVESGGGVVQPGRSLRLSCAASGFTFSSYAMHWVRQAPGKGLEWVAVISYDGSNKYYADSVKGRLTISRDNSKNTLYLQMNSLRAEDTAVYYCARIMGYDYGDYDVVDYWGQGTLVTVSSGSASAPKLEEGEFSEARVQSALTQPRSVSGSPGQSVTISCTGTSGDVGTYDYVSWYQQHPGKAPKLMIYDVSKRPSGVPDRFSGSKSGNTASLTISGLQAEDEADYYCNSYAGSYTWVFGGGTKLTVLGQPKTAPSVTLFPPSS	0.322
4) YU100-E07 (antibody) QVQLQESGGGVVQPGRSLRLSCAASGFTFSSYGMHWVRQAPGKGLEWVAVISYDGSNRYYADSVKGRFAISRDNSKNTLYLQMNSLRAEDTAVYYCAKIGATDPLDYWGQGTLVTVSSGSASAPKLEEGEFSEARVQSALTQPRSVSGSPGQSVTISCTGTSSDVGGYDYVSWYQQHPGKAPELMIYDVTKRPSGVADRFSGSKSGNTASLTISGLQAEDEADYYCCSYAGRYTWVFGGGTKLTVL	0.247
5) YU112-G06 (antibody) QVQLQESGGGVVQPGRSLRLSCAASGFTFSSYGMHWVRQAPGKGLEWVAVISYDGSNKYYADSVKGRFTISRDNSKNTLYLQMNSLRAEDTAVYYCAKIGATDPLDYWGQGTLVTVSSGSASAPKLEEGEFSEARVQSALTQPRSVSGSPGQSVTISCTGTISDVGGYNYVSWYQQHPGKAPKLMIYDVTKRRSGVPDRFSGSKSGNTASLTISGLQAEDEAGYYCSSYAGGYTWVFGGGTELTVL	0.762
6) YU100-F07 (antibody) QVQLVESGGGVVQPGRSLRLSCAASGFTFSSYAMHWVRQAPGKGLEWVAVISYDGSNKYYADSVKGRFTISRDNSKNTLYLQMNSLRAEDTAVYYCARIMGYDYGDYDVVDYWGQGTLVTVSSGSASAPKLEEGEFSEARVQSALTQPRSVSVSPGQSVTISCTGTSSDVGGYEYVSWYQQHPGKAPKLMIYDVTKRPSGVPDRFSGSKSGNTASLTISGLQGEDAADYYCCSYAGSYTWVFGGGTTVTVL	0.148
7) YU112-C09 (antibody) QVQLVQSGGGVVQPGRSLRLSCAASGFTFGSYGMHWVRQAPGKGLEWVAVISYDGSNKYYADSVKGRFTISRDNSKNTLYLQMNSLRAEDTAVYYCAKGSYYFDYWGQGTLVTVSSGSASAPKLEEGEFSEARVETTLTQSPATLSVSPGERATLSCRASQSFSSSYLAWYQQKPGQAPRLLIYGASRRAPGIPDRFSGSGSGTDFSLTISRLEPEDFAVYYCQQSSTSPTWAFGRGTKVEVK	0.898
8) YU100-E12 (antibody) QVQLVESGGGVVQPGRSLRLSCAASGFTFSSYGMHWVRQAPGKGLEWVAVISYDGSNKYYADSVKGRFTISRDNSKNTLYLQMNSLRAEDTAVYYCAKIGATDPLDYWGQGTLVTVSSGSASAPKLEEGEFSEARVQSALTQPASVSGSPGQSITISCTGTSSDVGGYNYVSWYQQHPGTAPKLMIYDVSNRPSGVSNRFSGSKSGNTASLTISGLQAEDEADYYCSSYTSSTTWVFGGGTKLTVL	0.5
9) YU100-H05 (antibody) QVQLVESGGGVVQPGRSLRLSCAASGFTFSSYGMHWVRQAPGKGLEWVAVISYDGSNKYYADSVKGRFTISRDNSKNTLYLQMNSLRAEDTAVYYCAKIGATDPLDYWGQGTLVTVSSGSASAPKLEEGEFSEARVQAVLTQPRSVSGSPGQSITISCTGTGSNVGGYNYVSWYQQHPGQAPKLMIYDVSKRPSGVPDRFSGSKSGNTASLTISGLQAEDEADYYCCSYAGTYTWVFGGGTKLTVL	0.461
